- Test system: CCRF-CEM leukemia
- procedure_text: NCI-60 one-dose screen, 48 h (100 = growth as untreated, 0 = no growth, -100 = all killed)
- condition_context: 10 µM unless noted
The panel holds about 83,000 compounds, 20% with a hit somewhere; the sample as a whole holds those more often.
measured_property: growth (%)
Field: numeric (%). Do not append units.

compound	growth, %
O=C1/C(=C/c2ccc(Cl)cc2)CN(Cc2cn(CCNc3ccnc4cc(Cl)ccc34)nn2)C/C1=C\c1ccc(Cl)cc1	-7.97
CCN(CC)CCOc1ccc(/C(=C(/C)c2ccccc2)c2ccc(OC(C)=O)cc2)cc1	94.3
C=C[C@@H]1C[C@@H]2Cc3cc(F)ccc3N1O2	-57.7

// sample "Fc1ccc(CNCCNc2ncnc3c2cnn3-c2ccccc2)cc1" , its growth was 86.9

Sure, the documented growth for "COc1cc(-c2nn(C(=O)NS(=O)(=O)c3ccccc3)cc2-c2ccncc2)ccc1Cl" is 92.8

What the record says about "N=C(N)c1ccc(-c2cc(Cl)cc(Cl)c2)cn1" : growth is 8.61

The compound listed as "CC(C)CSc1nc(NN)c(C#N)c(-c2ccccc2)n1" shows growth equal to 97.4

growth reading for "Cc1cc(C2(c3cc(C)c(O)cc3C)OS(=O)(=O)c3ccccc32)c(C)cc1O" : 93.7

Lab note: measured growth of "CC1(C)C(=O)/C(=C\c2ccc(C(F)(F)F)cc2)C[C@]2(C)[C@H]3CC[C@@H]4[C@H]5[C@H](C(=O)/C=C/c6ccc(C(F)(F)F)cc6)CC[C@]5(CO)CC[C@@]4(C)[C@]3(C)CC[C@@H]12" was 90.5

The compound listed as CCN(CC)CCC(CNc1ccnc2cc(Cl)ccc12)c1ccccc1 (stereo not given) shows growth equal to 58.6

The recorded growth for "O=C(CSc1nc2ccccc2[nH]1)c1ccc(N2CCOCC2)cc1" is 103

###

Recorded measurements of growth, one per entry
- System: MDA-MB-231 breast
- procedure_text: NCI-60 one-dose screen, 48 h (100 = growth as untreated, 0 = no growth, -100 = all killed)
- condition_context: 10 µM unless noted
This is part of a sample that, as a whole, favours compounds with a hit. Of some 83,000 tested, about 20% had one in any assay. The source made the active and inactive calls. The calls were made as follows: active = growth percent below 10; inactive = the rest.

Entry CC(C)(C)N1CCC1C(N)=O (stereo unspecified) : growth on MDA-MB-231 breast = 112% (inactive)

###

- Tested on: M14 melanoma
- procedure_text: NCI-60 one-dose screen, 48 h (100 = growth as untreated, 0 = no growth, -100 = all killed)
- condition_context: 10 µM unless noted
Compounds without any hit were thinned out: in the full panel of roughly 83,000, 20% have a hit.
measured_property: growth (%)
Numeric only. Scale: %

Reference set (2 entries):
compound	growth [%]
CC(C)C(C(=O)NCCN1CCOCC1)N1C(=O)/C(=C/c2ccc(Br)cc2)SC1=S (centres undefined)	90.7
O=S(=O)(NCCCNc1nccc(-n2ccc3cccnc32)n1)c1ccc(Br)cc1	110

growth for "Cc1ccc(S(=O)(=O)NCCNc2cc(-c3cn(C(C)(C)C)nc3-c3cccc(O)c3)ccn2)cc1" is 86.9

So, "CCCCCCN1CSC(=S)N(CCCCCC)C1" ? Its growth was 96.5

###

- Tested on: HCT-116 colon
- procedure_text: NCI-60 one-dose screen, 48 h (100 = growth as untreated, 0 = no growth, -100 = all killed)
- condition_context: 10 µM unless noted
The panel holds about 83,000 compounds, 20% with a hit somewhere; the sample as a whole holds those more often. Activity calls are given as the source filed them. How the source made its calls: active means growth percent below 10; inactive means the rest.
Listed compounds paired with reported growth

Answered cases to consult:
compound	system_name	growth
NC1=NC(SCc2ccccc2CCl)c2ncn(Cc3ccccc3CCl)c2N1 (stereo not given)	HCT-116 colon	7.53% (active)
COc1ccc(-c2nc(/C=C3/C(=O)Nc4ccc(F)cc43)c3ccccn23)cc1	HCT-116 colon	62% (inactive)
O=S(=O)(NCCCNc1nccc(-n2ccc3cccnc32)n1)c1cccc(C(F)(F)F)c1	HCT-116 colon	105% (inactive)
COc1cc(C(=O)/C=C/c2c(C)n([O-])c3ccc(C(F)(F)F)cc3[n+]2=O)cc(OC)c1OC	HCT-116 colon	21.1% (inactive)
COc1ccc(C(=O)c2cc(OC)c(OC)c(OC)c2OC)cc1O	HCT-116 colon	17.9% (inactive)

Notebook: "Cc1ccc(S(=O)(=O)Nc2c(Br)cc(Br)cc2C(N)=O)cc1" , growth read as 94.2% (inactive)

Value of growth reported for the compound "O=C(Nc1ccncc1)C(=O)c1cn(S(=O)(=O)c2ccc(Br)cc2)c2ccccc12" is 14.3% (inactive)

For record CC(O)CN1CCCCC1 (stereo not given) the listed growth is 110% (inactive)

The recorded growth for "N#Cc1c(-c2ccccc2)cc(-c2ccccc2)n(CC(=O)NO)c1=O" is 40.7% (inactive)

Form: compound = "CC1(C)C(=O)/C(=C\c2ccc(C(F)(F)F)cc2)C[C@]2(C)[C@H]3CC[C@@H]4[C@H]5[C@H](C(=O)/C=C/c6ccc(C(F)(F)F)cc6)CC[C@]5(CO)CC[C@@]4(C)[C@]3(C)CC[C@@H]12" ; growth = 82.6% (inactive)

###

Consider the following compounds and their measured growth readings.
- Tested on: SR leukemia
- procedure_text: NCI-60 one-dose screen, 48 h (100 = growth as untreated, 0 = no growth, -100 = all killed)
- condition_context: 10 µM unless noted
This is part of a sample that, as a whole, favours compounds with a hit. Of some 83,000 tested, about 20% had one in any assay.
Write it as a number; the unit % goes unstated.

Known growth results, listed for orientation:
compound	result_units	growth
NC1N=C(SCC(=O)N2CCN(c3cc4c(cc3F)c(=O)c(C(=O)O)cn4C3CC3)CC2)NC(=O)/C1=C/c1ccc(Cl)cc1 (stereo unspecified)	%	110
CCN(CC)CCC(CNc1ccnc2cc(Cl)ccc12)c1ccc(Cl)cc1 (stereo unspecified)	%	-13.2
O=C1C(Cl)=C(Nc2ccccn2)C(=O)c2ccccc21	%	81.4
NC(=O)c1c(NC(=S)Nc2ccc(OC(F)(F)F)cc2)sc2c1CCC1(C2)OCCO1	%	92.1
Cc1ccc2nc(Cl)cc(=O)n2c1	%	97.8
O=C(NNC(=O)N1c2ccccc2C=Cc2ccccc21)c1ccc2ccccc2c1	%	87.2

Looking up "CC(C)OC(=O)N1CCOCC1" , I see its growth listed as 109

The compound listed as "CCCCN(CCCC)C(=N)c1ccnc2ccccc12" has a reported growth of 92.7

The reported value for "CN1CCN(Cc2ccc(NC(=O)c3cncc(C#Cc4cnc(N)c5cnccc45)c3)cc2C(F)(F)F)CC1" in terms of growth is 11

Quick note, growth for CCCCC(CC)OC(=O)C(Br)CC (stereo unspecified) landed at 94.3

Lab note: measured growth of "CCC(=O)Oc1ccc(/C(=C(/C)Cc2cccc(OC)c2)c2ccc(OCCN(C)C)cc2)cc1" was -0.896

###

- Tested on: SK-MEL-28 melanoma
- procedure_text: NCI-60 one-dose screen, 48 h
- condition_context: 10 µM unless noted
About 83,000 compounds went through this panel and 20% of them were active in at least one assay; those are over-represented in the sample as a whole. Active and inactive are the calls of the source. How the source made its calls: active means growth percent below 10; inactive means the rest.
Please state which outcome applies, choosing from 1.0 = active, 0.0 = inactive

compound	label_class
COc1ccc(Nc2ncccc2C(=O)NCc2cn(Cc3cccc(Oc4ccccc4)c3)nn2)cc1	0.0

Request: Short answer needed: outcome of this test for "Cc1cc(N/N=C/c2nc(-c3ccc(Br)cc3)oc2C)c2cc(Cl)ccc2n1" ?
Result: 0.0

Request: Can you look up the reported call for "Nc1nnc(-c2ccc3ccccc3c2O)o1" for me?
Result: 0.0

Request: What outcome does the record of this test show for "COc1ccc(S(=O)(=O)NCCCNc2nccc(-n3ccc4cccnc43)n2)cc1" ?
Result: 0.0

Request: Test call for this compound, please: "O=C1NN(C(=O)c2ccc(Cl)cc2)C(c2ccccc2)=N/C1=C\c1cn(-c2ccccc2)nc1-c1ccccc1"
Result: 0.0

Request: For this compound, state the assay outcome: "Nc1ncnc2c1c(-c1ccc(Oc3ccccc3)cc1)nn2C[C@@H]1SSC[C@@H]1O"
Result: 1.0

###

- Test system: NCI-H322M lung
- procedure_text: NCI-60 one-dose screen, 48 h (100 = growth as untreated, 0 = no growth, -100 = all killed)
- condition_context: 10 µM unless noted
This is part of a sample that, as a whole, favours compounds with a hit. Of some 83,000 tested, about 20% had one in any assay.
measured_property: growth (%)
Only the number, expressed in %, is required.

Example entries begin here.
compound	measured_property	measured_result
COc1ccc(CN2CCc3c(Sc4ccccc4)nc(N)nc3C2=O)c(OC)c1	growth	67.9
OB(O)c1cccc(-c2nc3ccc4[nH]ncc4c3c3c2CCCC3)c1F	growth	48.1
OC(c1cc2cc(Br)ccc2c2cc(Br)ccc12)C1CCCCN1 (configuration not stated)	growth	-84.9
COC(=O)c1nc(-c2ccccc2)oc1S(=O)(=O)N1CCN(c2cccc(Cl)c2)CC1	growth	86.7
Cn1ccc(Nc2nccc(Oc3ccc(C(=O)Nc4cccc(F)c4)c(Cl)c3)n2)c1	growth	48.4
CC(C)(C)n1cc(-c2ccnc(NCCCNS(=O)(=O)c3ccccc3)c2)c(-c2cccc(O)c2)n1	growth	59.1

Recorded result, O=C1Nc2ccc(Cl)cc2C12Nc1cc(Cl)ccc1S2 (configuration not stated) , growth: 100

Entry "COc1ccc2c(c1)[nH]c(=O)c1c3cc(C)c(C)cc3cn21" ; growth = -25.1

In plain terms, CC(NNC(C)c1ccccc1)c1ccccc1 (configuration not stated) has a documented growth of 122

The measured growth associated with "COc1ccc(/C=C2\Oc3cc(OCCCN4CCCC4)ccc3C2=O)cc1" reads 93.1

Query "OCCCCCCNc1ncnc2cc(Cl)ccc12" yields growth of 105
